target: XIAP-BIR3 (Homo sapiens (Human), UniProt P98170)
Sequence (P98170 241-356): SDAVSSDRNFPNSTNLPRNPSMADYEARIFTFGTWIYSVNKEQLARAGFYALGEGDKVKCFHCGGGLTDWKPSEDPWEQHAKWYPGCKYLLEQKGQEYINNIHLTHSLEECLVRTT
procedure.summary: BIR binding assay (FRET competition), XIAP BIR3
Protocol: The BIR domain binding assays are FRET based competition assays that utilize His-tagged versions of each of the BIR2 and BIR3 domains from cIAP1, cIAP2, and XIAP (each domain assayed separately) each at a custom optimal concentration and a probe, 200 nM SMAC/DIABLO peptide […] labelled with AlexaFluor647 (part #crb 1110326h, Discovery Peptides). The assay is conducted in 50 mM HEPES, […], 1 mM CHAPS, 5% Glycerol, 1 mM DTT, in dI water with a final pH of 7.4 and final volume of 20 uL. […]
pIC50: −log10 of the molar value.
measurement.name: pIC50

>>> result("C[C@@H]1CN(CC(=O)N2CC(C)(C)c3[nH]c(=O)c(Cc4ccc(F)cc4)cc32)[C@@H](CN2CCC(COc3cccc(OCC4CCN(C[C@H]5CN[C@H](C)CN5CC(=O)N5CC(C)(C)c6[nH]c(=O)c(Cc7ccc(F)cc7)cc65)CC4)c3)CC2)CN1")
"7.80 to 8.10"
>>> result("C[C@@H]1CN(CC(=O)N2CC(C)(C)c3ncc(Cc4cccnc4)cc32)[C@@H](CN2CCO[C@H](COc3cccc(OC[C@@H]4CN(C[C@H]5CN[C@H](C)CN5CC(=O)N5CC(C)(C)c6ncc(Cc7cccnc7)cc65)CCO4)c3)C2)CN1")
"6.30 to 7.50"
>>> result("C[C@@H]1CN(CC(=O)N2CC(C)(C)c3[nH]c(=O)c(Cc4ccc(F)cc4)cc32)[C@@H](CN2CCO[C@H](C(=O)N3CCN(C(=O)[C@@H]4CN(C[C@H]5CN[C@H](C)CN5CC(=O)N5CC(C)(C)c6[nH]c(=O)c(Cc7ccc(F)cc7)cc65)CCO4)CC3)C2)CN1")
"7.80 to 8.10"
>>> result("C[C@@H]1CN(CC(=O)N2CC(C)(C)c3[nH]c(=O)c(Cc4ccc(F)cc4)cc32)[C@@H](CN2CCO[C@H](C(=O)N[C@H]3CC[C@H](NC(=O)[C@@H]4CN(C[C@H]5CN[C@H](C)CN5CC(=O)N5CC(C)(C)c6[nH]c(=O)c(Cc7ccc(F)cc7)cc65)CCO4)CC3)C2)CN1")
"7.80 to 8.10"
